Origin of measurements: paper PMC10053807

Give measured Papp at 4 h, 100 μM for each item. Keep answers brief.
assay: PAMPA permeability, brain polar lipid extract (BPLE) membrane; settings: pig, PAMPA, pH 7.4
One number for each entry, in ×10⁻⁶ cm/s.

1) CC(C)C(=O)Nc1ccc([N+](=O)[O-])c(C(F)(F)F)c1 [flutamide]; 58.1

Your task in this section: give Papp at 4 h, 100 μM for each listed record.
1. CC1Cc2ccccc2N1NC(=O)c1ccc(Cl)c(S(N)(=O)=O)c1 (centres unmarked) [indapamide]
2. O=C1CN=C(c2ccccc2)c2cc([N+](=O)[O-])ccc2N1 [nitrazepam]
3. CC(CCc1ccccc1)NCC(O)c1ccc(O)c(C(N)=O)c1 (centres unmarked) [labetalol]
4. COc1ccc2c(c1)N(C[C@H](C)CN(C)C)c1ccccc1S2 [levomepromazine]

A:
1. 6.6
2. 21.5
3. 22.2
4. 15.1
